system: RXF 393; test: NCI tumour cell line growth inhibition, 48 h
Calls of active or inactive are those of the source. No stated cut-off is given here; in the data, active = GI50 up to about 1.1 µM and inactive = higher.
Your response should consist of one outcome taken from active, inactive

>>> grouplabel("C=C(C)C1CC=C(C)C2(C1)OCC(C)(C)C(C)O2 (stereo not given)")
"inactive"
>>> grouplabel("Nn1c(SCC(=O)NCc2ccccc2)nc2ccccc2c1=O")
"inactive"
>>> grouplabel("N#CC1(C=O)c2ccccc2C=CN1C(=O)c1ccccc1 (stereo not given)")
"inactive"
>>> grouplabel("COc1cc2c(c(OC)c1OC)-c1ccc(SC)c(=O)cc1[C@@H](NCc1ccc(C#N)cc1)CC2")
"active"
>>> grouplabel("O=C(NNC(=O)c1ccccc1O)c1ccccc1O")
"active"

## Task What call does the record list for O=C(/C=C\Nc1ccccc1O)C(Cl)(Cl)Cl ?
## Result inactive

## Task Field entry: CC(=O)OCC1OC(NC(=S)CCSc2nc3ccccc3c(=O)n2-c2ccccc2)C(OC(C)=O)C(OC(C)=O)C1OC(C)=O (stereo not given)
## Result inactive

## Task Also check O=C1C(Br)=CC2(C=C1Br)CCNC1=C2C(=O)c2cccnc2C1=O
## Result inactive

## Task Entry to check: COc1ccc2nc(NCN3C(=O)c4ccccc4C3=O)sc2c1
## Result inactive

## Task And for COc1cc(NS(C)(=O)=O)ccc1Nc1c2ccccc2nc2c1[nH]c1ccc(NC3OC(CO)C(O)C(O)C3O)cc12 (stereo not given) ?
## Result active

----------
test system: TK-10; test: NCI tumour cell line growth inhibition, 48 h
Calls of active or inactive are those of the source. Rule as the data show it: active = GI50 up to about 1.1 µM and inactive = higher.
propertyMeasured: GI50

Here is how some molecules turned out for GI50.
>>> observed("O=c1[nH]c(=O)n(C2OC(CO)C(O)C2O)c2c1CCCC2 (centres undefined)")
"> 100 µM (inactive)"
>>> observed("O=c1ccn([C@@H]2C[C@@H]2CO)c(=O)[nH]1")
"> 100 µM (inactive)"
>>> observed("CCOc1ccc2ccc3cccnc3c2n1")
"34.2 µM (inactive)"
>>> observed("O=C(/C=C/c1ccc(O)c(O)c1)NCCc1ccc(-c2ccccc2)cc1")
"19.1 µM (inactive)"
>>> observed("CCOC(=O)c1ccc(-c2cc(C)no2)[nH]1")
"> 100 µM (inactive)"

## Task Dear colleague, I am looking for the recorded GI50 of the following molecule: COC(=O)[C@@H]1C[C@@H](O)CN1C(=O)c1ccc([N+](=O)[O-])cc1[N+](=O)[O-]
## Result > 100 µM (inactive)

## Task Follow-up entry: Cn1c(=O)c2nc(COCc3nc4c(=O)n(C)c(=O)n(C)c4[nH]3)[nH]c2n(C)c1=O
## Result > 100 µM (inactive)

## Task Now the same for COC(=O)[C@]12CC[C@H]3CN(S(=O)(=O)c4ccc(C)cc4)[C@H]([C@H]31)[C@H](c1ccco1)N2S(=O)(=O)c1ccc(C)cc1
## Result 56.5 µM (inactive)

## Task Same question for N#CC(c1ccccc1)N(CCOCCOCCN(C(=O)c1ccccc1)C(C#N)c1ccccc1)C(=O)c1ccccc1 (centres undefined) please.
## Result 78.2 µM (inactive)

----------
test system: SF-268; assay: NCI tumour cell line growth inhibition, 48 h
Activity calls are given as the source filed them. Rule as the data show it: active = GI50 up to about 1.1 µM and inactive = higher. Square brackets hold non-standard residues; d marks the D form. Peptide text beside a SMILES is read from it. 2Nal = N[CH](Cc1ccc2ccccc2c1)C(=O)O
Respond with a class label; see active, inactive

Look over these answered cases.
>>> grouplabel("COc1cc2c3c(n(Cc4ccccc4)c(=O)c2cc1OC)-c1ccccc1C3=O")
"inactive"
>>> grouplabel("CC(=O)c1sc2c(c1OC(=O)c1ccc(Cl)cc1)c(=O)n(-c1ccccc1)c(=S)n2-c1ccccc1")
"inactive"

## Task Assay outcome for O=C1c2ccccc2-n2c1nc1ccc([N+](=O)[O-])cc1c2=O : what was it?
## Result inactive

## Task Can you check C=CCN(C(C)=O)c1cc(OCc2ccccc2)c2c(c1)c(C)cn2S(=O)(=O)c1ccccc1 next?
## Result inactive

## Task Try this compound too: COc1ccc(CCCNC(=O)c2cc(OC)c(OC)cc2CCO)cc1OC
## Result inactive

## Task And the next one, O=c1[nH]c(=O)n(C2OC(CO)C(O)C2O)c2c1CCCC2 (stereo not given) ?
## Result inactive

## Task Same for COc1cc(C2SC(=N)Nc3c2c(C)nn3C(=O)c2ccc(Cl)cc2)cc(OC)c1OC (stereo not given)
## Result inactive

## Task Next up: O=C1C2=C(CCCCC2)C2CCCCC12O (stereo not given)
## Result inactive

## Task Item: CCc1nnc(-c2nsc3ccccc23)s1
## Result inactive

## Task Try the compound CC(C)C(NC(=O)C(CCCCN)NC(=O)C(Cc1c[nH]c2ccccc12)NC(=O)C(Cc1ccc(O)cc1)NC(=O)C(CS)NC(=O)C(N)Cc1ccc2ccccc2c1)C(=O)NC(CS)C(=O)NC(C(N)=O)C(C)O (stereo not given) (H-[2Nal]CYWKVCT-NH2; configuration not given here)
## Result inactive

## Task Now consider Cc1cc(=O)n(-c2ccccc2)c(=O)o1 and answer again.
## Result inactive

## Task Proceed to O=C1NC2OC(C(O)CO)C(O)C2O1 (stereo not given)
## Result inactive

## Task // next record Oc1cccc2ccc(SSc3ccc4cccc(O)c4n3)nc12
## Result inactive

## Task Similarly, Cn1c(=O)c2nc(COCc3nc4c(=O)n(C)c(=O)n(C)c4[nH]3)[nH]c2n(C)c1=O ?
## Result inactive

## Task Thanks! And COc1cc(NS(C)(=O)=O)ccc1Nc1c2ccccc2nc2c1[nH]c1ccc(NC3OC(CO)C(O)C(O)C3O)cc12 (stereo not given) ?
## Result active

## Task Same for O=C(O)CNc1c2ccccc2nc2ccccc12
## Result inactive
